The measurements presented in this section are drawn from PubChem BioAssay AID720540.

target: Protein phosphatase EYA2 (Homo sapiens); experiment: qHTS for Inhibitors of the Phosphatase Activity of Eya2: Confirmatory Assay for Cherry-picked Compounds; conditions: purified EYA2 phosphatase activity, qHTS confirmation; series mostly up to 46.1 µM; note: nearly all actives have a fitted effect of over 65% in size
Among all 1,300 compounds or so, about 460 (35%) were called active. Roughly 39% stayed inconclusive and do not appear here. Calls come from the whole dose curve; as a rule, active = well fitted inhibition curve with a large enough effect; inconclusive = small, poorly fitted or top-dose-only effect; inactive = flat fitted curve, though single readings scatter. The list shows a part of the results.
Possible outcomes: yes (active), no (inactive)

>>> class_name("CC(C)Cc1nc2oc3c(=O)[nH]cnc3c2c2c1CCC2")
"yes"
>>> class_name("Cc1ccccc1OCCn1cc(C(=S)N2CCN(C)CC2)c2ccccc21")
"yes"
>>> class_name("CCn1nc(C(=O)Nc2nc(-c3ccccn3)cs2)c2ccccc2c1=O")
"yes"
>>> class_name("O=C(O)CCCCCNS(=O)(=O)c1cccc2c1C(=O)c1ccccc1C2=O")
"yes"
>>> class_name("CN(CCCc1cnc[nH]1)C(=S)NCCCN(Cc1ccc(Cl)cc1)c1ccc(Br)cn1")
"yes"
>>> class_name("CN(CC(=O)Nc1cccc(F)c1)C(=O)c1ccc(COc2ccccc2)cc1")
"no"
>>> class_name("COc1cnc(-c2ccccn2)nc1Oc1ccc(C(C)(C)C)cc1")
"yes"
>>> class_name("O=[N+]([O-])c1ccc([N+](=O)[O-])c(Nc2ccc(N3CCOCC3)cc2)c1")
"yes"
>>> class_name("CCc1cnc2ccccc2c1/C=C/c1ccc(N(C)C)cc1")
"yes"
>>> class_name("O=c1[nH]c(/C=C\\c2ccc(O)cc2)nc(O)c1[N+](=O)[O-]")
"no"
>>> class_name("Nc1[nH]nc2ncc3cc4ccccc4nc3c12")
"yes"
>>> class_name("CC1CCCCC1Nc1nc2ccc(Cl)cc2n2cnnc12 (stereo not given)")
"no"
>>> class_name("COc1ccccc1NC(=O)C1=C(C)NC2=C(C(=O)CC(c3ccc(OC)c(OC)c3)C2)C1c1coc2ccccc2c1=O (stereo not given)")
"yes"
>>> class_name("CC1C=CCC2C(=O)N(c3ccc(OC(=O)c4cccs4)cc3)C(=O)C12 (stereo not given)")
"yes"
>>> class_name("Cc1ccc(C(=O)Oc2cc(C)n(C)c(=O)c2)cc1")
"yes"
>>> class_name("COc1cccc(/C=N/N2C(=O)CSC2=S)c1O")
"yes"
>>> class_name("O=C(CCCl)Nc1cccc2cccnc12")
"yes"
>>> class_name("COc1ccc(CN(CCN(C)C)c2ccccn2)cc1")
"no"
>>> class_name("COc1cc(NC(=O)c2ccc(S(=O)(=O)N(C)c3ccccc3)cc2)cc(OC)c1")
"no"
>>> class_name("c1ccc2c(c1)nc(Nc1ccc(N3CCCCC3)cc1)c1nncn12")
"yes"
